Hello, the source for this data is patent US20050267166A1, in case you need it.

# measurementDescription: pharmacokinetics in cancer subjects, single dose and 5-day repeated dose
# Assay type: in vivo, human
# conditionsUsed: human, plasma; cancer subjects, single dose and 5-day repeated dose; read-out: elimination half-life
testReadout: half-life

Ask | What value of half-life has been recorded for this entry: COc1ccc(S(=O)(=O)Nc2cccnc2Nc2ccc(O)cc2)cc1 [ABT-751]
Reply | 4 to 16 h

###

# measurementDescription: in vivo
# conditionsUsed: mouse, po
testReadout: MTD

Ask | What value of MTD has been recorded for this entry: COc1ccc(S(=O)(=O)Nc2cccnc2Nc2ccc(O)cc2)cc1
Reply | ~150 mg/kg
